# literature pull: Dipeptidyl peptidase 4 (Sus scrofa, UniProt P22411) log10 of IC50
attribute-measured: log10 of IC50 (log10 of the value in nM)

{"compound": "CC(C)=CCn1c(SC(C)(C)CN)nc2c1c(=O)n(CC(=O)c1ccccc1)c(=O)n2CC(F)(F)F", "log10 of IC50": 1.32}
{"compound": "Cc1noc(C)c1S(=O)(=O)c1ncn(C(=O)N(C)C)n1", "log10 of IC50": 2.01}
{"compound": "CN(C)C(=O)n1cnc(S(=O)(=O)C2CCOc3ccccc32)n1 (centres unmarked)", "log10 of IC50": 2.33}
{"compound": "CC(C)=CCn1c(SC(C)(C)CN)nc2c1c(=O)n(Cc1nc3cc(F)ccc3s1)c(=O)n2C", "log10 of IC50": 1.38}
{"compound": "CC(C)=CCn1c(OC2CCCCC2CN)nc2c1c(=O)n(CC(=O)c1ccccc1)c(=O)n2C (mixture of isomers)", "log10 of IC50": 0.65}
